# MEASUREMENT TARGET: T1, GST-WRNIP1 (Homo sapiens, UniProt Q96S55 1-665)
# T1 sequence: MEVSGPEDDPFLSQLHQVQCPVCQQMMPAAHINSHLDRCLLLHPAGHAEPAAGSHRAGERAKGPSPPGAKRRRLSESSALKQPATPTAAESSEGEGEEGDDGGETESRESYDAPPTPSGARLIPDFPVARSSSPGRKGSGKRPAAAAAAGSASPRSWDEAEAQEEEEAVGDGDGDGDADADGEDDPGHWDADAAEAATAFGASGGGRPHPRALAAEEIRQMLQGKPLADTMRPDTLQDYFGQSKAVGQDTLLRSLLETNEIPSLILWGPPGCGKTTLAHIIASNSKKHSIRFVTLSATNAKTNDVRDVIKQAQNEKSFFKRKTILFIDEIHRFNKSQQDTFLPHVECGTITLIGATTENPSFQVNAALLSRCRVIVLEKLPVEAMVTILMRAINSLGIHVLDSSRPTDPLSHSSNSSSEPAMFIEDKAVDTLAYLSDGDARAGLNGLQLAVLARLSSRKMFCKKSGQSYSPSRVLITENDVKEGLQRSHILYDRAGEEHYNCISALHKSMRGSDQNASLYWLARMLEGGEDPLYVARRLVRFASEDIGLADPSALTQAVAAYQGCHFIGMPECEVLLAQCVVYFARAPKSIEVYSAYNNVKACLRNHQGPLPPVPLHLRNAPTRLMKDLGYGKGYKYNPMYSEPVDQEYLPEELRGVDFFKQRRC
# ASSAY SUMMARY: fluorescence anisotropy; Hill n 1.1; Anisotropy: 10 nM DNA, 50 mM Tris-HCl pH 7.5, 90 mM KCl, 5 mM EDTA, with or without 1 mM ATP and 1.25 mM MgCl2, 25 C; EMSA: 50 nM DNA, 50 mM Tris-HCl pH 7.5, 150 mM KCl, 15 min 25 C, 6% native gel; DNA folded in 25 mM Tris-HCl pH 7.5, 50 mM KCl
# DETAILS: protein: recombinant; (GST fusion); label: 5' FITC on strand 1; 21 bp duplex at 3' end of strand 1; 5' ss G4 overhang 27 nt; strand 2 5' TTT overhang
OUTCOME MEASURE: Kd (nM)
Response body: numeric value in nM, unit text excluded.

Lookup: Identify measured Kd associated with CEB G4 partial duplex (structured_DNA) DNA 1: AAGGGTGGGTGTAAGTGTGGGTGGGTGCGTCTGCGGCTGGCTCGAGGC DNA 2: TTTGCCTCGAGCCAGCCGCAGACG
Found: 221
